- systemTested: Human PKMYT1 (Homo sapiens)
- Construct: Human PKMYT1 75-362 was cloned as a TEV cleavable 6xHis fusion; 6xHis (TEV cleavable) (cleaved yes); made in house; host or cells: bacterial cells
- Sequence (Q99640 75-362): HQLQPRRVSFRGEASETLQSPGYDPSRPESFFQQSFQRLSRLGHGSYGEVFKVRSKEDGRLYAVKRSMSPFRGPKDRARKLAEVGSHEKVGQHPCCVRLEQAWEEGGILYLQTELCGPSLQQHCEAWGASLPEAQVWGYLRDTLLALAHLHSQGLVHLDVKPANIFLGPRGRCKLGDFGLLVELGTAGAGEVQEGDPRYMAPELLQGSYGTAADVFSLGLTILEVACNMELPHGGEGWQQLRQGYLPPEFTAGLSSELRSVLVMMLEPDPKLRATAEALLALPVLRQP
- assayRemarks: PKMYT1 biochemical ADP-Glo enzymatic assay
- statedConditions: PKMYT1 kinase domain 15 nM; ADP-Glo; banded values
endpointName: IC50

> print(dat)
                                    molecule         result
 1  Cc1cn(CC(=O)N(C)C2CC2)nc1Nc1ncc(C(=O)Nc2c(C)ccc(O)c2C)s1        < 50 nM
 2  Cc1cn(C(CO)C(=O)N2CCCC2C(F)(F)F)nc1Nc1ncc(C(=O)Nc2c(C)ccc(O)c2C)s1 (centres unmarked)        < 50 nM
 3  CCc1cn(CC(F)F)nc1Nc1ncc(C(=O)Nc2c(C)ccc(O)c2C)s1        < 50 nM
 4  Cc1ccc(O)c(C)c1NC(=O)c1cnc(Nc2nn(C)c3cccc(F)c23)s1        < 50 nM
 5  Cc1ccc(O)c(C)c1NC(=O)c1cnc(Nc2cccc(-c3ncccn3)n2)s1        < 50 nM
 6  Cc1cn(CC(C)O)nc1Nc1ncc(C(=O)Nc2c(C)ccc(O)c2C)s1 (centres unmarked)        < 50 nM
 7  CCN(CCS(C)(=O)=O)C(=O)Cn1cc(C)c(Nc2ncc(C(=O)Nc3c(C)ccc(O)c3C)s2)n1        < 50 nM
 8  Cc1ccc(O)c(C)c1NC(=O)c1cnc(Nc2nc(Cl)ccc2C(F)(F)F)s1  50 to 1000 nM
 9  Cc1ccc(O)c(C)c1NC(=O)c1cnc(Nc2ncnc3sccc23)s1        < 50 nM
10  COc1cccc(Nc2ncc(C(=O)Nc3c(C)ccc(O)c3C)s2)n1        < 50 nM
11  Cc1cn(CCF)nc1Nc1ncc(C(=O)Nc2c(C)ccc(O)c2Br)s1        < 50 nM
12  Cc1ccc(O)c(C)c1NC(=O)c1cnc(Nc2nc(N3CCN(C)CC3)ccc2Cl)s1        < 50 nM
13  Cc1cn(CC2CCOC2)nc1Nc1ncc(C(=O)Nc2c(C)ccc(O)c2C)s1 (centres unmarked)        < 50 nM
14  Cc1ccc(O)c(C)c1NC(=O)c1cnc(Nc2ccn(C3CCN(C)C3=O)n2)s1 (centres unmarked)        < 50 nM
15  Cc1nccc(Nc2ncc(C(=O)Nc3c(C)ccc(O)c3C)s2)n1        < 50 nM
16  Cc1ccc(O)c(C)c1NC(=O)c1cnc(Nc2cccc(OC(C)C)n2)s1        < 50 nM
17  Cc1cc(C)c(NC(=O)c2cnc(Nc3ccn(CC(=O)N4CCCC4)n3)s2)c(C)c1O  50 to 1000 nM
18  CCN(CC)C(=O)Cn1cc(C)c(Nc2ncc(C(=O)Nc3c(C)cc(Br)c(O)c3C)s2)n1  50 to 1000 nM
19  CCn1nc(Nc2ncc(C(=O)Nc3c(C)ccc(O)c3C)s2)cc1C  50 to 1000 nM
20  Cc1ccnc(Nc2ncc(C(=O)Nc3c(C)ccc(O)c3C)s2)c1        < 50 nM
21  CCN(CC)C(=O)C(C)n1ccc(Nc2ncc(C(=O)Nc3c(C)ccc(O)c3C)s2)n1 (centres unmarked)        < 50 nM
22  Cc1ccc(O)c(C)c1NC(=O)c1cnc(Nc2cccc(N3CCN(CCO)CC3)n2)s1        < 50 nM
23  CCN(C(=O)Cc1cccc(Nc2ncc(C(=O)Nc3c(C)ccc(O)c3C)s2)n1)C1CC1        < 50 nM
